# TESTED TARGET: Drosophila OR85b (Drosophila melanogaster, UniProt Q9VHQ7)
# Construct: expressed in transfected cells
# Sequence (Q9VHQ7 1-390): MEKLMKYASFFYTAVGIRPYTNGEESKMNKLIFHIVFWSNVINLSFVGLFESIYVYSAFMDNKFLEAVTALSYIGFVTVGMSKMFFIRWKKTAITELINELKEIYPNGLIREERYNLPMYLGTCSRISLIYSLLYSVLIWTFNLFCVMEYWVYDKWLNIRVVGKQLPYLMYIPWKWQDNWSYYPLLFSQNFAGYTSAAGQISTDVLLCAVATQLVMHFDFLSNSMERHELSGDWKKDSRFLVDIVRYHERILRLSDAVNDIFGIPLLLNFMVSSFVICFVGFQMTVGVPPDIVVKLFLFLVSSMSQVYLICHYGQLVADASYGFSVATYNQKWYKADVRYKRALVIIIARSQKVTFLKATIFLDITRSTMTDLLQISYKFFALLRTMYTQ
# Sequence (Q9VNB5 1-486 partner): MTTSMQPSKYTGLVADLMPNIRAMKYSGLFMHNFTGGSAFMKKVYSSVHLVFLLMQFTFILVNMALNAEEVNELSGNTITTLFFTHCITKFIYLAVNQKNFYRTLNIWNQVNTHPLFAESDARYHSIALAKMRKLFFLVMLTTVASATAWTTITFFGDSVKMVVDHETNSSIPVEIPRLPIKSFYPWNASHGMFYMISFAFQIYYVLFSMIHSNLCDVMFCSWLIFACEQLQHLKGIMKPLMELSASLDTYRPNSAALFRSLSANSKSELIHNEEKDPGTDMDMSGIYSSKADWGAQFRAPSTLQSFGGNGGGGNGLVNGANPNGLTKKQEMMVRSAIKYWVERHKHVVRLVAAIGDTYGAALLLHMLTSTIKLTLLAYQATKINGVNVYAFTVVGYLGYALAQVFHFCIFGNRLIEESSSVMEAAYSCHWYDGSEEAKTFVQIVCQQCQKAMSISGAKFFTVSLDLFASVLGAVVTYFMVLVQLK
# ASSAY INFO: Calcium ion fluorescence (GCaMP6) assay, OR85b stable HEK293 cell line
# Type: cell-based
# CONDITION PARAMETERS: ligand concentration 100 (unit not given); 0.05 threshold, values below shown as 0
MEASURED PROPERTY: DF norm AVERAGE OR85b

| COMPOUND | TESTED TARGET | REPORTED RESULT |
| --- | --- | --- |
| CC/C=C\CCO [Z3-hexenol] | Drosophila OR85b (Drosophila melanogaster, UniProt Q9VHQ7) | 0 |
| CC1=CCC23CC1C(C)(C)C2CCC3C (stereo not drawn) [α-funebrene] | Drosophila OR85b (Drosophila melanogaster, UniProt Q9VHQ7) | 0.2621 |
| C=Cc1ccccc1 [styrene] | Drosophila OR85b (Drosophila melanogaster, UniProt Q9VHQ7) | 0 |
| CC/C=C\CCOC(C)=O [z3-hexenyl acetate] | Drosophila OR85b (Drosophila melanogaster, UniProt Q9VHQ7) | 0 |
| CCCCCCCCCCCCCC [tetradecane] | Drosophila OR85b (Drosophila melanogaster, UniProt Q9VHQ7) | 0 |
| CCCCCCCCCCC [undecane] | Drosophila OR85b (Drosophila melanogaster, UniProt Q9VHQ7) | 0.1131 |
